Test system: LOX IMVI melanoma
Experiment: NCI-60 one-dose screen, 48 h
Conditions: 10 µM unless noted
About 83,000 compounds went through this panel and 20% of them were active in at least one assay; those are over-represented in the sample as a whole. The source made the active and inactive calls. How the source made its calls: active means growth percent below 10; inactive means the rest.
Valid outcomes are listed here; reply with one: TRUE for active, FALSE for inactive

-- ask Outcome logged for O=C1C2C(C(=O)N1CC[Se][Se]CCN1C(=O)C3C(C1=O)[C@H]1C=C[C@@H]3C1)[C@H]1C=C[C@@H]2C1 (some centres undefined) in this assay:
-- reply TRUE

-- ask Outcome logged for N#Cc1c(-c2ccccc2)cc(-c2ccccc2)n(CCCCCCC(=O)O)c1=O in this assay:
-- reply FALSE

-- ask Outcome logged for CCOC(=O)N1CCC(N=C2CSc3nnc(-c4cc(C(F)(F)F)cc(C(F)(F)F)c4)n3N2)CC1 in this assay:
-- reply FALSE

-- ask Outcome logged for CC[n+]1c(/C=C/c2ccc(N3CCCC3)cc2)cccc1/C=C/c1ccc(N2CCCC2)cc1 in this assay:
-- reply TRUE

-- ask Outcome logged for COc1cc(/C=C2\CN(S(=O)(=O)c3ccc(C)cc3)C/C(=C\c3cc(CN4CCOCC4)c(O)c(OC)c3)C2=O)cc(CN2CCOCC2)c1O in this assay:
-- reply TRUE

-- ask Outcome logged for O=C(CC(C(=O)c1ccccc1)N1CCN(Cc2ccccc2)CC1)c1ccccc1 (centres undefined) in this assay:
-- reply FALSE

-- ask Outcome logged for CCN(CC)c1ccc(N=C2C=CC(=O)C=C2NC(C)=O)cc1 in this assay:
-- reply FALSE

-- ask Outcome logged for COc1c(Br)cc(C(c2cc(Br)c(OC)c(Br)c2)c2ccccc2C(=O)O)cc1Br in this assay:
-- reply FALSE

-- ask Outcome logged for COC(=O)[C@H](Cc1cnc[nH]1)NC(=O)[C@@H](NC(=O)Nc1cc(C(F)(F)F)cc(C(F)(F)F)c1)C(C)C in this assay:
-- reply TRUE

-- ask Outcome logged for CCOC(=O)c1sc(NC(=O)COc2ccc(/C=C3\CCc4cc(OC)ccc4C3=O)cc2)nc1C in this assay:
-- reply TRUE

-- ask Outcome logged for COc1ccc(-c2cc(-c3cccnc3)nc(S(=O)(=O)CC(=O)Nc3ccc(C)cc3)c2C#N)cc1OC in this assay:
-- reply FALSE

-- ask Outcome logged for COc1ccc(/C=C/C(=O)c2cccc(NS(C)(=O)=O)c2)cc1 in this assay:
-- reply FALSE

-- ask Outcome logged for C[C@]12CC[C@H](O)CC1=CC[C@@H]1[C@@H]2CC[C@]2(C)C(c3cccnc3)=CC[C@@H]12 in this assay:
-- reply FALSE

-- ask Outcome logged for CC(=O)Nc1cc2c3c(cccc3c1)-c1ccccc1-2 in this assay:
-- reply FALSE

-- ask Outcome logged for CC1C(=O)NC2=Nc3ccccc3C(=O)NN21 (centres undefined) in this assay:
-- reply FALSE

-- ask Outcome logged for O=C(CNC(=O)c1cccc2ccccc12)Nc1ccccc1Oc1ccc(O)cc1 in this assay:
-- reply FALSE

-- ask Outcome logged for Cn1ccnc1C(=O)/C=C/c1ccc(C(=O)Nc2nc3ccccc3[nH]2)cc1 in this assay:
-- reply FALSE

-- ask Outcome logged for COc1ccc2c(c1)CC/C(=C\c1ccc(OCC(=O)Nc3nc4ccccc4s3)cc1)C2=O in this assay:
-- reply TRUE

-- ask Outcome logged for CCOC(=O)C1C(=O)NC(C(=O)OCC)(C(=O)OCC)C1CC (centres undefined) in this assay:
-- reply FALSE

----------
System: NCI-H23 lung
Test: NCI-60 one-dose screen, 48 h (100 = growth as untreated, 0 = no growth, -100 = all killed)
Settings: 10 µM unless noted
Description: Growth inhibition of the NCI-H23 human Non-Small Cell Lung tumor cell line is measured as a screen for anti-cancer activity. Cells are grown in 96 well plates and exposed to the test compound for 48 hours. Compounds are tested at a single concentration, which is 10^-5 M for most compounds. The reported endpoint is percent growth (GI% or GIPRCNT), where numbers from 0 - 100% represent growth inhibition, and numbers from -100% - 0 represent cell death. […]
About 83,000 compounds went through this panel and 20% of them were active in at least one assay; those are over-represented in the sample as a whole.
reported_metric: growth (%)
A number alone suffices; assume %.

growth in this record for COc1ccc(CNC(=O)c2c(C)n([O-])c3ccc(OC)cc3[n+]2=O)cc1 : 98.2

growth in this record for COP(=O)(OC)C(c1ccccc1)(c1ccccc1)c1ccccc1 : 104

growth in this record for CCSc1nc(-c2ccc(F)cc2)c(C#N)c(=O)[nH]1 : 95.2

growth in this record for CCN(Cc1cccc(S(=O)(=O)[O-])c1)c1ccc(C(=C2C=CC(=[N+](CC)Cc3cccc(S(=O)(=O)O)c3)C=C2)c2ccccc2S(=O)(=O)O)cc1 : 97.3

growth in this record for COc1cc(-c2n[nH]nc2-c2ccccn2)cc(OC)c1OC : 98.2

growth in this record for COc1ccc(CCN2C(=O)CCC3=C2CCCC3=O)cc1OC : 98.2

growth in this record for CCN(CC)CCSc1ncnc2c1cnn2-c1ccc(S(N)(=O)=O)cc1 : 94.9

growth in this record for COc1cc(NC(C)CCCN)c2nc(C)ccc2c1Oc1ccc(F)cc1 (stereo unspecified) : 84.8

growth in this record for O=c1[nH]cc(Nc2cc(Cl)c3nonc3c2[N+](=O)[O-])c(=O)[nH]1 : 91.2

growth in this record for C/C(=C\CCc1ccoc1)CC/C=C(\C)CCCN1CCSCC1 : 64.6

growth in this record for CCCCCN1C(=O)CCC1=O : 110

growth in this record for O=C(NC1CCS(=O)(=O)C1)c1ccc(C(=O)c2ccccc2)cc1 (stereo unspecified) : 98.9

growth in this record for Clc1ccc(C2c3ccccc3-c3nccn32)c(Cl)c1 (stereo unspecified) : 40

growth in this record for Cc1ccc(C2=Nc3c(ccc4c(C)c(C)c(=O)oc34)OC2)cc1 : 97.4

growth in this record for CCSCC1CC(O)(c2ccccc2)C(c2ccccc2)C(c2ccc(Cl)cc2)O1 (stereo unspecified) : 14.7

growth in this record for COc1ccc(OC)c2c1CCC1(C2)NC(=O)NC1=O (stereo unspecified) : 106

growth in this record for O=C(COc1cccc(/C=C2\Cc3ccccc3C2=O)c1)c1ccc(Cl)cc1 : 96.1

growth in this record for CC[C@@H](c1ccc(O)c(O)c1)[C@@H](CC)c1ccc(O)c(O)c1 : 96.6

growth in this record for C[C@@H]1CN(c2nc3c(cc2F)c(=O)c(C(=O)O)cn3C(C)(C)C)C[C@H](C)N1 : 95.2

growth in this record for CCCCCCCCN(CCO)CCCCCCCC : 103

growth in this record for COC(=O)[C@H]1[C@H]2C[C@@H]3c4[nH]c5cc(OC)ccc5c4CCN3C[C@H]2C[C@@H](OC(=O)/C=C/c2cc(OC)c(OC)c(OC)c2)[C@@H]1OC : 93.5

----------
I'd be grateful if you could share measured growth for these entries.
Tested on: HT29 colon
Experiment: NCI-60 one-dose screen, 48 h (100 = growth as untreated, 0 = no growth, -100 = all killed)
Conditions: 10 µM unless noted
Description: Growth inhibition of the HT29 human tumor cell line is measured as a screen for anti-cancer activity. Cells are grown in 96 well plates and exposed to the test compound for 48 hours. Compounds are tested at a single concentration, which is 10^-5 M for most compounds. The reported endpoint is percent growth (GI% or GIPRCNT), where numbers from 0 - 100% represent growth inhibition, and numbers from -100% - 0 represent cell death. For example, a value of 40 represents 60% growth inhibition. […]
The panel holds about 83,000 compounds, 20% with a hit somewhere; the sample as a whole holds those more often. Calls of active or inactive are those of the source. The calls were made as follows: active = growth percent below 10; inactive = the rest.

growth in this record for O=C(c1ccccc1)c1ccc(Oc2ccc([N+](=O)[O-])cc2[N+](=O)[O-])cc1 : 2.81% (active)

growth in this record for COc1cccc(N2CCN(c3cccc(C)n3)CC2)c1 : 94.9% (inactive)

growth in this record for Cc1ccc2nc(-c3ccc(N(C)C)c(Br)c3)cn2c1 : 72.8% (inactive)

----------
I'd be grateful if you could share measured growth for these entries.
System: HOP-92 NSCLC
Assay: NCI-60 one-dose screen, 48 h (100 = growth as untreated, 0 = no growth, -100 = all killed)
Conditions: 10 µM unless noted
This is part of a sample that, as a whole, favours compounds with a hit. Of some 83,000 tested, about 20% had one in any assay.
A number alone suffices; assume %.

growth in this record for COc1cc(-c2nc3sc4c(c3c(=O)[nH]2)CCCCCC4)cc(OC)c1OC : 42.7

growth in this record for CCCCCCCCCCOC(C)=O : 89.3

growth in this record for Cc1cc(Cl)ccc1Nc1nc(C(F)(F)F)ccc1C(=O)N/N=C/c1ccc(Cl)cc1 : -24.1

growth in this record for CCOc1cc(/C=C/C(=O)CC(=O)/C=C/c2ccc(OC(=O)CNc3nc4ccc(OC)cc4s3)c(OCC)c2)ccc1OC(=O)CNc1nc2ccc(OC)cc2s1 : 90.9

growth in this record for CCOC(=O)C1C(=O)NC(C(=O)OCC)(C(=O)OCC)C1CC (centres undefined) : 98

growth in this record for CCOC(CNCc1cc(C)c2[nH]c3ccccc3c2c1C)OCC : 64.1

growth in this record for C[C@@H]1[C@H]2[C@H](C=C3[C@@H]4CC[C@H]5Cc6nc7c(nc6C[C@]5(C)[C@H]4C[C@@H](O)[C@@]32C)C[C@@H]2CC[C@H]3C4=C[C@@H]5O[C@@]6(CC[C@](C)(CO)O6)[C@@H](C)[C@@]5(O)[C@@]4(C)[C@H](O)C[C@@H]3[C@@]2(C)C7)O[C@]12CCC(C)(C)O2 : -4.69

growth in this record for COc1ccc(C2CC(c3ccc4c(c3)OCO4)=NN2C=O)cc1 (centres undefined) : 89.2

growth in this record for COc1cc(/C=C/C(=O)C(C(=O)/C=C/c2ccc(OC(=O)CCNC34CC5CC(CC(C5)C3)C4)c(OC)c2)C(=O)CCNC23CC4CC(CC(C4)C2)C3)ccc1OC(=O)CCNC12CC3CC(CC(C3)C1)C2 (centres undefined) : 44.6

growth in this record for CCOC(=O)OCC(=O)[C@@]1(O)CC[C@H]2[C@@H]3CCC4=CC(=O)CC[C@]4(C)[C@H]3[C@@H](O)C[C@@]21C : 72.5

growth in this record for N#CSCC1CC(O)(c2ccccc2)C(c2ccccc2)C(c2ccc(Cl)cc2)O1 (centres undefined) : -29.6

growth in this record for Cc1ccccc1NC(=O)NC(CC(N)=O)c1ccc2c(c1)nc(-c1cccc(Oc3ccc(C(C)(C)C)cc3)c1)n2CCCN1CCCCC1C (centres undefined) : 13.5

growth in this record for O=C(O)CCC(=O)OC[C@@H](NC(=O)C(Cl)Cl)[C@H](O)c1ccc([N+](=O)[O-])cc1 : 86.7

growth in this record for COc1ccc(C(=O)/C=C/c2ccc(C)cc2)cc1OC : 52.5

growth in this record for COc1cc(-c2n[nH]nc2-c2ccccn2)cc(OC)c1OC : 86.3

growth in this record for COc1ccccc1NC(=O)c1sc2nc3c(cc2c1N)C(=O)CCC3 : 37.5

growth in this record for N#Cc1c(-c2ccccc2)cc(-c2ccccc2)n(CCCCC(=O)O)c1=O : 93.7

growth in this record for Cc1nn(-c2ccccc2)cc1/C=C1\SC(N2CCCCC2)=NC1=O : 76.7

growth in this record for COc1ccc2nc(N/N=C(\C)c3ccccn3)cc(C)c2c1 : 7.16
